assay: physchem; settings: pH 4.5, aqueous buffer, kinetic from dmso stock, Solubility (pH 4.5)
Documented solubility at 24 h across a set of molecules
A number alone suffices; assume µg/mL.

Example entries and their recorded answers appear below.
1. CCc1cc(COc2c(C)cccc2-c2cccc(N3C[C@@H]4C[C@]4(C(=O)O)[C@H]3COC)n2)cc2c1CN(C1COC1)CC2    90
2. CCO[C@H]1CN(c2cccc(-c3cccc(Cl)c3OCc3cc4c(c(OC)c3)CN(C3CCOCC3)CC4)n2)CC[C@H]1C(=O)O    88.2

Exercise: Which solubility at 24 h value belongs to CO[C@H]1CN(c2cccc(-c3cccc(C)c3OCc3ccc4c(c3)CCN(C3CCOCC3)C4)n2)CC[C@H]1C(=O)O ?
Key: 88

Recorded values, source patent US9353090B2.
